Assay: RAM signaling pathway blockade in yeast – S. cerevisiae, Pdr1DBD-CYC8 efflux-inhibited sensitized strain, primary screen (AID 1298);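 also: 0% = DMSO untreated cells without growth and 100% = 10 µM 1-NA-PP1 full growth; higher means more yeast growth rescued from 5-FOA killing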
Conditions: S. cerevisiae cbk1-as DSE1-URA3 strain, 5-FOA growth OD615, 2 d; at 50 µM; hits give high values
Quantity Kind: RAM network inhibition (%)
Respond numerically; units are % and should not be typed.

Would you please look over these solved cases?
Prompt: Tell me the measured RAM network inhibition of COC(=O)c1cccnc1-n1c(=O)c2cccnc2n(Cc2cccc(OC)c2)c1=O , please.
Response: -1.41

Prompt: Same thing, different compound: Cn1c(C(=O)N2CCCC2)cc2c(=O)n(C)c3ccccc3c21
Response: -0.2

***
Prompt: Tell me the measured RAM network inhibition of CCC1CCCCN1C(=O)Cn1c(=O)oc2ccccc21 (configuration not stated) , please.
Response: 4.3

Prompt: Same thing, different compound: CP(=O)(COC(=O)c1ccccc1)COC(=O)c1ccccc1
Response: 1.26

Prompt: Same thing, different compound: Cn1cccc1Cc1nnc(SCC(=O)NC2CCCC2)n1CCc1ccccc1
Response: 6.53

Prompt: Same thing, different compound: CCCCN1C(=O)C2C(c3ccc(OC)cc3O)NC(CC(C)C)(C(=O)O)C2C1=O (configuration not stated)
Response: 0.99

Prompt: Same thing, different compound: O=c1[nH]n(-c2ncnc3c2cnn3-c2ccccc2)c(=O)c2ccccc12
Response: 2.07

Prompt: Same thing, different compound: COc1ccc(-n2c(Cn3c(=O)sc4ccccc43)nnc2SCC(=O)N2CCCC2)cc1
Response: 3.39

Prompt: Same thing, different compound: COc1ccc(-n2nnc3c(=O)n(CC(=O)N4CCC(Cc5ccccc5)CC4)cnc32)cc1
Response: 5.24

Prompt: Same thing, different compound: COc1cccc(-c2nc(CS(=O)CC(=O)NC3CC3)c(C)o2)c1 (configuration not stated)
Response: 0.14

Prompt: Same thing, different compound: CCN(CC)CCN1C(=O)C2C3c4ccccc4C(c4ccccc43)C2C1=O (configuration not stated)
Response: 1.71

Prompt: Same thing, different compound: Cc1ccc(S(=O)(=O)CC(C)N2CCOCC2)c(S(=O)(=O)CC(C)N2CCOCC2)c1 (configuration not stated)
Response: 1.89

Prompt: Same thing, different compound: Cc1cc(C)n(-c2nnc(C)n2/N=C/c2ccccc2OCc2ccccc2Cl)n1
Response: -2.2

Prompt: Same thing, different compound: CC(=O)c1ccc(NC(=O)CSc2nnc(NC(=O)CN3CCOCC3)s2)cc1
Response: 0.62

Prompt: Same thing, different compound: COc1ccc(S(=O)(=O)NCCN2CCOCC2)c2ccccc12
Response: 1.53

Prompt: Same thing, different compound: COc1cc2[nH]c(=O)n(CCCC(=O)N3CC=C(c4ccccc4)CC3)c(=O)c2cc1OC
Response: 1.8

Prompt: Same thing, different compound: Cc1cc(C)n2nc(S(=O)(=O)NCCc3ccccc3)nc2n1
Response: 1.3

Prompt: Same thing, different compound: CC1(C)CC(=O)C(C=NC2CCCCC2)=C(O)C1
Response: -1.28
